B1: glmS ribozyme (parent)
chain: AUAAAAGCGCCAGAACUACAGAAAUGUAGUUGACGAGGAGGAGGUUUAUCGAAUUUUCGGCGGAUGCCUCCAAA

# Variants of: B1
# Test protocol: self-cleavage kobs at 10000 uM GlcN6P; higher = faster cleavage; RNA array
# Applied conditions: with glucosamine-6-phosphate
Variants at the floor of the assay were thinned out.
Measurement type: self-cleavage kobs at 10000 uM GlcN6P (s⁻¹)
Quick reminder: number only, in s⁻¹, skip the unit.

Some variants with recorded self-cleavage kobs at 10000 uM GlcN6P:
// query Find the recorded self-cleavage kobs at 10000 uM GlcN6P belonging to U30G U45A C67A and report it.
// result 0.00242

// query Please report the recorded self-cleavage kobs at 10000 uM GlcN6P for G13U C16G .
// result 0.000653

// query Give the measured self-cleavage kobs at 10000 uM GlcN6P of G44U A64G .
// result 9.64e-05

// query For the variant A6U C10G G62U C67G C71G , what self-cleavage kobs at 10000 uM GlcN6P is on record?
// result 2.87e-05

// query State the recorded self-cleavage kobs at 10000 uM GlcN6P for this entry: A53C C70G
// result 7.97e-05

More entries:
// query Report self-cleavage kobs at 10000 uM GlcN6P for A12G C67U please.
// result 0.000475

// query Dear colleague, I am looking for the recorded self-cleavage kobs at 10000 uM GlcN6P of the following variant: G9U C61A
// result 0.00121

// query Item under review: A53C C58A . Reported self-cleavage kobs at 10000 uM GlcN6P?
// result 3.91e-05

// query Consider the variant shown here: A14C C70U What is its recorded self-cleavage kobs at 10000 uM GlcN6P?
// result 0.00953

// query Please report the recorded self-cleavage kobs at 10000 uM GlcN6P for G13A G32A .
// result 0.00362

// query Item under review: A33G U45A C50G U54G G60A C67A . Reported self-cleavage kobs at 10000 uM GlcN6P?
// result 0.000164

// query Which self-cleavage kobs at 10000 uM GlcN6P value is on record for G40C U46C ?
// result 0.000967

// query Would you mind telling me what self-cleavage kobs at 10000 uM GlcN6P value was observed for U30G A48C ?
// result 5.11e-05

// query Give the measured self-cleavage kobs at 10000 uM GlcN6P of C16U G29U C67G .
// result 0.000292

// query Field request: self-cleavage kobs at 10000 uM GlcN6P | item: U55G C68G
// result 0.000104

// query // lookup self-cleavage kobs at 10000 uM GlcN6P for A15G U56G C68G
// result 6.13e-05
